System: UACC-62
Experiment: NCI tumour cell line growth inhibition, 48 h
Calls of active or inactive are those of the source. Rule as the data show it: active = GI50 up to about 1.1 µM and inactive = higher. Square brackets hold non-standard residues; d marks the D form. Peptide text beside a SMILES is read from it. Ac5c = NC1(C(=O)O)CCCC1
// one of 1 = active, -1 = inactive, no free text

Worked cases, answers included:
molecule	category
CC(C)(C)c1nc2c(o1)/C(=N\c1ccc(F)cc1)c1ccccc1C2=O	-1
NCC(=O)NC1(C(=O)O)CCCC1 (H-Gly-[Ac5c]-OH)	-1
CCOC(=O)C1N(S(=O)(=O)c2ccc(C)cc2)CCC12C(c1ccc(OC)cc1)NC1CCCCC12 (configuration not stated)	-1
O=C1/C(=C/c2cccc(Oc3ccccc3)c2)N=C(c2ccccc2)N1c1nc2ccc(Sc3ccccc3)cc2[nH]1	-1
CC(C)C1OC2(C)OC(=N)C1(C#N)C(C#N)(C#N)C2C (configuration not stated)	-1

## Input How did this test come out for Cc1c(CNc2ccc(C(=O)NC(CC(=O)O)C(=O)O)cc2)ccc2nc(N)nc(N)c12 (configuration not stated) ?
## Output 1

## Input How did this test come out for NS(=O)(=O)c1ccc(NC(=O)C2C(=O)C(=O)N(c3ccc(S(N)(=O)=O)cc3)C2=O)cc1 (configuration not stated) ?
## Output -1

## Input How did this test come out for CC(=O)/C(=C\NC(=S)Nc1ccc(S(N)(=O)=O)cc1)C(=O)Nc1ccccc1C ?
## Output -1

## Input How did this test come out for Cc1ccc(NC(=O)C2C(=O)N(c3ccc(C)c(C)c3)C(=O)/C2=N\NC(N)=O)cc1C (configuration not stated) ?
## Output -1

## Input How did this test come out for CN(C)C1COC2Cc3ccccc3C1O2 (configuration not stated) ?
## Output -1

---

Tested on: SF-268
Experiment: NCI tumour cell line growth inhibition, 48 h
Calls of active or inactive are those of the source. Cut-off read from the data, not from the text of the source: active = GI50 up to about 1.1 µM and inactive = higher.
Give measured GI50 for each item. Keep answers brief.

molecule	GI50
NC(CO)C(=O)NCC(=O)O (stereo not drawn)	> 100 µM (inactive)
Cc1cc(S(=O)(=O)Nc2nc(N)n[nH]2)c(S)cc1Cl	> 10 µM (inactive)
O=C(Oc1ccc(C(c2c(O)c3ccccc3oc2=O)c2c(O)c3ccccc3oc2=O)cc1)c1ccc(C(=O)c2ccccc2)cc1	25.6 µM (inactive)
C#CCNC(=O)ON1C(=O)CCC1=O	> 100 µM (inactive)

Please report GI50 for every entry that follows.
1. CC(CC(C)[C@H]1CCC2[C@H]3C(CC[C@@]21C)[C@@]1(C)CCC(O)C[C@H]1C[C@@H]3O)C(=O)O (stereo partly drawn)
2. NS(=O)(=O)c1ccc(/N=N/c2cc3ccccc3c(C(=O)O)c2O)cc1

## Output
> 100 µM (inactive)
> 52.1 µM (inactive)

---

Test system: M14
Assay: NCI tumour cell line growth inhibition, 48 h
Activity calls are given as the source filed them. Cut-off read from the data, not from the text of the source: active = GI50 up to about 1.1 µM and inactive = higher.
measurement.kind: GI50

compound	system.name	GI50
Clc1ncnc2c1ncn2CCCCCCCCCCCCn1cnc2c(Cl)ncnc21	M14	15.3 µM (inactive)
COc1ccc(C2[C@H]3C(=O)N(c4ccc(Cc5ccc(N6C(=O)[C@@H]7ON(c8ccccc8)C(c8ccc(OC)cc8)[C@@H]7C6=O)cc5)cc4)C(=O)[C@H]3ON2c2ccccc2)cc1 (stereo not given in full)	M14	23.1 µM (inactive)
COc1ccc(-c2nc(-c3cnccn3)n(COCCO)n2)cc1	M14	> 100 µM (inactive)
COc1ccc2nc3cc(Cl)ccc3c(Sc3ccc([N+](=O)[O-])cc3)c2c1	M14	> 10 µM (inactive)

# input for lookup
## Input Lab note: need GI50 for N#Cc1cc(N(CCCl)CCCl)c([N+](=O)[O-])cc1[N+](=O)[O-] on M14, anyone have it?
## Output > 100 µM (inactive)

---

Tested on: RXF 393
Assay: NCI tumour cell line growth inhibition, 48 h
Active and inactive are the calls of the source. Rule as the data show it: active = GI50 up to about 1.1 µM and inactive = higher.
Give measured GI50 for each item. Keep answers brief.

Known results for compounds:
smiles.repr	GI50
Cc1ccnc(NC(=S)Nc2ccccc2Cl)c1	> 100 µM (inactive)
CN(C)c1ccc(C(c2ccc(Cl)cc2)c2ccc(N(C)C)cc2)cc1	28.8 µM (inactive)
O=S(=O)(O)c1ccc2c(/N=N/c3ccc(Sc4ccc(/N=N/c5c(O)ccc6cc(S(=O)(=O)O)ccc56)cc4)cc3)c(O)ccc2c1	> 100 µM (inactive)

Please report GI50 for every entry that follows.
1. O=C(CCCCCCCCCCc1ccccc1)c1c(O)cccc1O
2. Nc1n[n+]2cc(-c3ccccc3)n(CC(=O)c3ccccc3)c2s1

## Output
1. 19.4 µM (inactive)
2. 20.4 µM (inactive)

---

System: BT-549
Experiment: NCI tumour cell line growth inhibition, 48 h
Calls of active or inactive are those of the source. No stated cut-off is given here; in the data, active = GI50 up to about 1.1 µM and inactive = higher.
// one of class 1 (active), class 0 (inactive), no free text

Worked cases, answers included:
compound	category
O=C1C(c2ccccc2)=C(c2ccccc2)C1(Cl)Cl	class 0
Nc1nc(Cl)cc(NCC2(CO)CCCCC2)n1	class 0
CC(C(=O)O)c1ccc(-c2ccccc2)c(F)c1 (stereo unspecified) [TARENFLURBIL]	class 0

## Input How did this test come out for O=C1O[C@H](c2ccc3c(c2)OCO3)[C@H]2CO[C@@H](c3ccc4c(c3)OCO4)[C@@H]12 ?
## Output class 0

## Input How did this test come out for NC(=O)/C=C/c1c[nH]c2nccnc12 ?
## Output class 0

## Input How did this test come out for Cc1ccc(NC(=O)CCc2nnc3s/c(=C\C=C\c4ccccc4)c(=O)n23)cc1 ?
## Output class 0

## Input How did this test come out for CC1=NN(C(=O)c2ccccc2O)C(=O)/C1=C/c1ccc([N+](=O)[O-])cc1 ?
## Output class 1

## Input How did this test come out for Cc1cn(CC2=NCC(C)(C)N2)c(=O)[nH]c1=O ?
## Output class 0

## Input How did this test come out for CCOC(=O)/C(C(N)=O)=C(O)/C(O)=C(\Br)C(=O)c1ccccc1 ?
## Output class 0

## Input How did this test come out for O=C(O)CSC1=NCCN1 ?
## Output class 0

## Input How did this test come out for CC(C)/C(Cl)=N/OC(=O)Nc1ccc(OC(F)(F)F)cc1 ?
## Output class 0

---

System: MDA-MB-435
Assay: NCI tumour cell line growth inhibition, 48 h
The source made the active and inactive calls. Cut-off read from the data, not from the text of the source: active = GI50 up to about 1.1 µM and inactive = higher.
measurement.kind: GI50

compound	system.name	GI50
CC1=NN2C(=N)/C(=C/c3ccco3)C(=O)N=C2S1	MDA-MB-435	> 100 µM (inactive)
[O-]/[N+](=N/c1ncc(-c2ccccc2)cn1)c1ncc(-c2ccccc2)cn1	MDA-MB-435	40.5 µM (inactive)
CSC1=N/C(=C\c2ccc(C)cc2)C(=O)N1CN1CCCCC1	MDA-MB-435	> 100 µM (inactive)
CSc1nncc2[nH]c(C)nc12	MDA-MB-435	> 100 µM (inactive)

Please report GI50 for every entry that follows.
1. O=C(O)CCS/C(=C\C(SCCC(=O)O)c1ccc(Cl)cc1)c1ccc(Cl)cc1 (stereo not given)
2. CN1CN(c2ccccc2)C2(CCN(Cc3nc4ccccc4s3)CC2)C1=O
3. CC(=O)/C(=C\NC(=S)Nc1ccc(S(N)(=O)=O)cc1)C(=O)Nc1ccccc1C
4. O=C(ON=c1c2ccccc2ccc2ccccc12)c1cc([N+](=O)[O-])cc([N+](=O)[O-])c1
5. CCCCSC1=N/C(=C\c2ccc(N(C)C)cc2)C(=O)N1
6. O=C1Oc2cc(O)cc(/C=C/c3ccc(O)cc3)c2[C@@]12c1c(O)cc(O)cc1OC2c1cccc(O)c1 (stereo not given in full)

## Output
["36.4 µM (inactive)", "17.8 µM (inactive)", "32.3 µM (inactive)", "> 100 µM (inactive)", "28.6 µM (inactive)", "21.4 µM (inactive)"]

---

Tested on: CCRF-CEM
Test: NCI tumour cell line growth inhibition, 48 h
The source made the active and inactive calls. No stated cut-off is given here; in the data, active = GI50 up to about 1.1 µM and inactive = higher.
measurement.kind: GI50

Please report GI50 for every entry that follows.
1. C=CCN(C(=O)OC(C)(C)C)[C@H](C)C(=O)N[C@@H](C)C(=O)OC
2. COc1ccc(-c2nc(-c3cnccn3)n(COCCO)n2)cc1
3. Nc1ccc(-c2nc3ccccc3s2)cc1
4. O=[N+]([O-])C(=C/c1cccc2ccccc12)/C(=C\c1cccc2ccccc12)[N+](=O)[O-]
5. Cc1cccc(C)c1NC(=O)CCc1nnc(S)[nH]1
6. C/C(=C1/N=C(c2cc([N+](=O)[O-])ccc2Cl)N(c2cccc(C)c2)C1=O)c1cc2ccccc2oc1=O
7. O=C(c1ccco1)c1ccccc1C(=O)c1ccco1

## Output
1: 36 µM (inactive); 2: > 100 µM (inactive); 3: 14.6 µM (inactive); 4: 0.528 µM (active); 5: > 100 µM (inactive); 6: 23.3 µM (inactive); 7: > 100 µM (inactive)

---

Test system: SF-539
Assay: NCI tumour cell line growth inhibition, 48 h
Activity calls are given as the source filed them. Rule as the data show it: active = GI50 up to about 1.1 µM and inactive = higher.
Give measured GI50 for each item. Keep answers brief.

Known results for molecules:
molecule	system.name	value
O=C(CC1(O)C(=O)Nc2ccccc21)c1ccc2ccccc2c1 (stereo not given)	SF-539	> 100 µM (inactive)
C/C(=N\OCC(O)CNC(C)C)c1ccc2c(c1)NC(=O)CS2 (stereo not given)	SF-539	> 100 µM (inactive)
COC(=O)[C@]1(c2ccc(N(C)C)cc2OC)C[C@@H]2CCCN(CCc3c1[nH]c1ccccc31)C2	SF-539	20.5 µM (inactive)
COC(=O)C1CC2CC1C1C2SC(F)(F)C1(F)F (stereo not given)	SF-539	> 100 µM (inactive)

# input for lookup
## Input Fill blank: measured GI50 of the molecule CC1(C)C2CC3C4CC5(Nc6ccccc6C5N41)[C@]3(C)CC2=O (stereo not given in full) is ____.
## Output > 50 µM (inactive)

Recorded values, source ChEMBL document CHEMBL1201862.
